Please provide measured growth inhibition for the entries that follow.
protocol description: NCI Yeast Anticancer Drug Screen. Data for the mec2-1 strain (AID 157)
run conditions: S. cerevisiae mec2-1 strain, at 50.0 µM, active compounds read high
This is part of a sample that, as a whole, favours compounds with a hit. Of some 79,000 tested, about 15% had one in any assay.
Answer in %, number only, no unit symbol.

Task: Please look up its growth inhibition: CCC1CCCCN1C(=S)N/N=C(\C)c1ccccn1 (stereo not drawn)
Output: 94.1

Task: Please look up its growth inhibition: CCCN(CCC)C(=O)c1ccc(C)cc1
Output: 97.9

Task: Please look up its growth inhibition: COc1ccc2c(c1)C(OC)C1c3c(cc4c(c3-2)OCO4)CCN1C (stereo not drawn)
Output: -17.5

Task: Please look up its growth inhibition: OC(CSc1ccccc1)CN1CCN(c2ccc(Cl)cc2)CC1 (stereo not drawn)
Output: 25.5

Task: Please look up its growth inhibition: O=C(Nc1cccc(C(F)(F)F)c1)Oc1ccc(Cl)c2cccnc12
Output: 91.8

Task: Please look up its growth inhibition: S=C1NC2=C(COc3ccccc32)C(c2ccc(Cl)cc2)N1 (stereo not drawn)
Output: 92.5

Task: Please look up its growth inhibition: CCC(C)(O)Cc1ccc(Cl)cc1 (stereo not drawn)
Output: 41.9

Task: Please look up its growth inhibition: CC(C)N=C(N)/N=C(\N)Nc1ccc2ccc3ccccc3c2c1
Output: 25.1

Task: Please look up its growth inhibition: CC(C)(C)c1ccc(O)c(-c2ccccc2)c1
Output: 99.7

Task: Please look up its growth inhibition: CCOC(=O)c1cc(CC)sc1NC(=O)CC(C)=O
Output: 17.9

Task: Please look up its growth inhibition: O=S(=O)(O)c1cnccn1
Output: 98.3

Task: Please look up its growth inhibition: COc1c(C)c2c(c(O)c1C/C=C(\C)CCC(=O)O)C(=O)OC2
Output: 90.9

Task: Please look up its growth inhibition: CCCCCC/C=C1\CCC(CN2CCCC2)C1=O (stereo not drawn)
Output: 70.7

* * *

protocol description: NCI Yeast Anticancer Drug Screen. Data for the bub3 strain (AID 167)
run conditions: S. cerevisiae bub3 mutant strain, at 5.0 µM (retest, dose inferred, filed as 0.5), active compounds read high
This is part of a sample that, as a whole, favours compounds with a hit. Of some 79,000 tested, about 15% had one in any assay.
Output Y for growth inhibition not less than 8%; output N otherwise.

Task: API: above_or_equal(metric=growth inhibition, cutoff=8%) for item O=C(/C=C/C(Cl)(Cl)Cl)Nc1ccc(Cl)cc1
Output: Y

Task: API: above_or_equal(metric=growth inhibition, cutoff=8%) for item CC(C)NC(=O)C(C)O (stereo not drawn)
Output: N

Task: API: above_or_equal(metric=growth inhibition, cutoff=8%) for item CCN(CC)CCNC(Cc1ccccc1)c1ccc(OCc2ccccc2)cc1 (stereo not drawn)
Output: Y

Task: API: above_or_equal(metric=growth inhibition, cutoff=8%) for item NNc1ccc(Cl)cc1Cl
Output: Y

Task: API: above_or_equal(metric=growth inhibition, cutoff=8%) for item Cc1cccc2c(N)c3ccccc3nc12
Output: N

Task: API: above_or_equal(metric=growth inhibition, cutoff=8%) for item O=C1C=CC(=O)N1c1ccc(O)cc1
Output: N

Task: API: above_or_equal(metric=growth inhibition, cutoff=8%) for item COC(=O)c1ccc(=O)c2nc3/c(=C/O)c(O)cc(=O)c3[nH]c12
Output: Y

Task: API: above_or_equal(metric=growth inhibition, cutoff=8%) for item Fc1cccc(F)c1C1SCc2nc3cc4ccccc4cc3n21 (stereo not drawn)
Output: Y

Task: API: above_or_equal(metric=growth inhibition, cutoff=8%) for item CC1(C)N=c2cc3c(cc2N1c1ccc(Cl)cc1)=Nc1ccccc1N3c1ccc(Cl)cc1
Output: N

Task: API: above_or_equal(metric=growth inhibition, cutoff=8%) for item CC(C)c1ccc(C(=O)OC2CCCC2)cc1
Output: N

Task: API: above_or_equal(metric=growth inhibition, cutoff=8%) for item N#Cc1ccc(Br)cc1[N+](=O)[O-]
Output: Y

Task: API: above_or_equal(metric=growth inhibition, cutoff=8%) for item O=[N+]([O-])c1ccc2c(c1)Cc1ccccc1-2
Output: N

The reported numbers originate from PubChem BioAssay (NCI).
